target system: T1, Hse1, P38753
T1 sequence (P38753 208-285, looked up): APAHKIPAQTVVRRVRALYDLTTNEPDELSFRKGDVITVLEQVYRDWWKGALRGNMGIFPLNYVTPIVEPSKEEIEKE
measurement protocol: SPOT array
assay conditions: median of control spots 1727
Parameter: SPOT intensity. Scope: all listed entries.
Please state the value as a number alone, without comment.

EREKALPPIPFTTTL
1

Task: Can you look up the measured SPOT intensity of GTIARPLFLVVLFFI for me?
Output: 0

Task: Which SPOT intensity reading was recorded for the binder IPSRPAPKPPSSASA ?
Output: 1

Task: Which measured SPOT intensity value corresponds to APPLPPTAPPPPSLP ?
Output: 12

Task: Which SPOT intensity is reported for this binder? EEEEEHPPLPARRKS
Output: 0

Task: SPOT intensity lookup needed for RNNRPVPPPPPMRTT , thanks.
Output: 7

Task: // SPOT intensity lookup, key: QPPLPSSAPPIPTSH
Output: 0
